Could you please report measured inhibition for the items listed next?
Assay: BT084 cell growth, single and combined drugs, ICGC_MB145, cisplatin and BGB IC40 combos (AID 1671461);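 note: cells exposed to drugs for 96 hours; 0% = vehicle DMSO and 100% = high DMSO full killing control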
Conditions: BT084 medulloblastoma cells, drug combinations, cisplatin combination, at 0.5 µM, stronger effect = higher value
Kindly report the value followed by its unit.

> print(dat)
                                   compound  assay.result
1  COc1ccc(-n2c(SCCCN3C(=O)c4cccc5cccc(c45)C3=O)nnc2-c2ccncc2)cc1         8.14%
2  CC(=O)Nc1nc(C)c(-c2ccc(Cl)c(S(=O)(=O)NCCO)c2)s1         14.9%
3                       O=c1[nH]cnc2ccccc12        -49.4%
4  NC1CCC(N[C@@H]2C[C@H]2c2ccccc2)CC1 (stereo not given in full)        -9.89%

Please report the recorded inhibition for "COc1cc2ncnc(-n3nc(-c4ccccn4)nc3N)c2cc1OC" . 7.09%

----------
Could you please report measured z-score for the items listed next?
Test: galactose survival enhancers in mitochondrial complex I cybrids – cell-based, galactose medium, ATP luminescence, primary screen (AID 1645843);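 note: positive z means more ATP and so rescue of galactose-driven cybrid death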
Details: complex I mutant cybrid cells, 72 h, stronger effect = higher value
One number for each entry.

Answered examples (5):
> print(dat)
                        structure.as.smiles  assay.result
1  O=c1[nH]c2cc(C(F)(F)F)ccc2n1-c1cc(C(F)(F)F)ccc1O         0.585
2  COc1ccccc1C1(O)CCN(CCCn2c3ccccc3c3ccccc32)CC1        -0.705
3  c1ccc(C(O[C@@H]2CCCN(CCc3ccc4c(c3)OCO4)C2)c2ccccc2)cc1        -0.585
4  Cc1nn(-c2ccccc2)c(C)c1C=NN1CCN(Cc2ccccc2)CC1         -0.13
5  O=S(=O)(NCCCCCCc1ccccc1)c1cccc2c(Cl)cccc12         -1.14

I'm hoping you can list z-score for every compound here, please.
1. Cc1c[nH]c(=O)n(CCCN2CCN(c3ccccc3OCC(F)(F)F)CC2)c1=O
2. C=CC(=O)c1ccc2ccccc2c1
3. Cc1c(C2CCN(CCc3ccccc3)CC2)noc1-c1ccc(Cl)cc1
4. CCCCCCN(CCCCCC)C(=O)Cc1c(-c2ccc(Cl)cc2)[nH]c2ccc(Cl)cc12
5. Cc1cc(C)c(N(Cc2ccccc2)S(=O)(=O)c2ccc(OCCNC(=O)c3cc4ccccc4o3)cc2)c(C(=O)NO)c1

1: -0.38; 2: -0.58; 3: -0.21; 4: -1.19; 5: -0.695

----------
Assay: galactose survival enhancers in mitochondrial complex I cybrids – cell-based, galactose medium, ATP luminescence, primary screen (AID 1645843);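 note: positive z means more ATP and so rescue of galactose-driven cybrid death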
Conditions: complex I mutant cybrid cells, 72 h, stronger effect = higher value
Please enter met where z-score is greater than or equal to -0.9, and not met where it is lower.

Take a look at these entries with their results.
> print(dat)
                        structure.as.smiles  class.label
1  CC1(C)C(=O)N(CCN2CCC(C(=O)c3ccc(F)cc3)CC2)c2ccccc21      not met
2    O=C1C=CC(=O)C2=C1C1c3ccccc3C2c2ccccc21          met
3  O=C(Nc1ccccc1)N[C@H]1C[C@H](C(=O)O)Nc2cc(Cl)cc(Cl)c21          met

Please tell me: is the compound "O=C(Nc1ccc(C(F)(F)F)cn1)N1CCN(c2ncccc2C(F)(F)F)CC1" at or over -0.9 in terms of z-score? met
